experiment summary: chemical genetic growth profiling, strain panel (AID 1159580);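 note: tested at 20 µM; growth read once vehicle control cultures reached saturation at 30 °C; 1 = growth at the plate median or of vehicle wells; lower values mean less growth of the strain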
assay conditions: S. cerevisiae deletion strains, growth OD, locus YOL006C, strain TOP1, active compounds read low
Hit rate of the full screen: of about 5,500 compounds, about 2,000 (36%) were called active. Inconclusive results (about 18%) are left out. The list shows a part of the results.
I'd be grateful if you could share measured normalized growth for these entries.
Numbers only.

Some molecules with known normalized growth results, for comparison:
• C=C[C@H]1CN2CC[C@H]1C[C@@H]2[C@H](O)c1ccnc2ccccc12 = 0.992
• CCOC(=O)[C@H](CCc1ccccc1)N[C@@H](C)C(=O)N1Cc2ccccc2C[C@H]1C(=O)O = 0.987
• COc1ccc(CNc2ccccc2-c2nc3ccccc3[nH]2)cc1 = 0.57
• CN(C)C(=O)Nc1ccc(Cl)c(Cl)c1 = 0.862
• CCC(=O)Nc1ccc(Cl)c(Cl)c1 = 0.885

Now for a further molecule.
## Task What value of normalized growth has been reported for the following molecule? `CC(=O)c1ccc(-c2ccc(Cl)c(Cl)c2)o1`
## Result 0.15

* * *

experiment summary: chemical genetic growth profiling, strain panel (AID 1159580)
assay conditions: S. cerevisiae deletion strains, growth OD, locus YOR001W, strain rrp6, active compounds read low
In all, about 5,500 compounds went through this assay and about 2,000 (36%) were called active. Another 18% or so got no clear call; they are omitted. Some of the results follow.
Assign normalized growth to each entry below.
Answers are plain numbers.

Please give normalized growth for each item listed below.
1. COC(=O)CCC(C)[C@H]1CCC2C3C(C[C@H](O)[C@@]21C)[C@@]1(C)CC[C@@H](O)C[C@H]1C[C@H]3O (some centres not stated)
2. COc1cc(C)c(C(=O)Oc2cc(C)c(C(=O)O)c(O)c2C)c(OC)c1C
3. Cc1cc(O)c(C=O)c2c1C(=O)Oc1c(COC(=O)/C=C/C(=O)O)c(O)c(C(=O)O)c(C)c1O2
4. CNC(=O)Oc1ccc2c(c1)[C@]1(C)CCN(C)[C@@H]1N2C
5. COC(=O)CCC(C)C1CCC2C3CC[C@@H]4C[C@H](O)CC[C@]4(C)C3C[C@H](O)[C@]12C (some centres not stated)
6. Cc1ncc([N+](=O)[O-])n1CC(C)O (configuration not stated)
7. C[C@@H]1CC2C3CCC4=CC(=O)C=C[C@]4(C)[C@@]3(F)[C@@H](O)C[C@]2(C)[C@H]1C(=O)CO (some centres not stated)
8. CC(CCC(=O)O)[C@H]1CCC2C3CC[C@@H]4CCCC[C@]4(C)C3CC[C@@]21C (some centres not stated)

## Result
[0.985, 0.989, 0.961, 0.96, 0.995, 0.994, 1.01, 1.02]

* * *

experiment summary: chemical genetic growth profiling, strain panel (AID 1159580)
assay conditions: S. cerevisiae deletion strains, growth OD, locus YNL233W, strain BNI4, active compounds read low
Hit rate of the full screen: of about 5,500 compounds, about 2,000 (36%) were called active. Inconclusive results (about 18%) are left out. Some of the results follow.
Kindly supply the reported normalized growth values for the records listed here.
Numbers only.

Take a look at these entries with their results.
* CC[C@H](CCC(C)[C@H]1CCC2C3CCC4C[C@@H](O)CC[C@]4(C)C3CC[C@@]21C)C(C)C (some centres undefined) | 1
* CC(C)CCCC(C)C1CCC2C3CC[C@H]4CCCC[C@]4(C)C3CC[C@]12C (some centres undefined) | 0.983
* C[C@H](CCC(=O)O)[C@H]1CCC2C3C(CC[C@@]21C)[C@@]1(C)CC[C@@H](O)C[C@H]1C[C@@H]3O (some centres undefined) | 1.02

## Task Consider the compound CC(CCC(=O)O)[C@H]1CCC2C3C[C@H](O)[C@@H]4C[C@H](O)CC[C@]4(C)C3CC[C@@]21C (some centres undefined) and give its measured normalized growth.
## Result 1.08

* * *

I'd appreciate it if you could supply normalized growth values for the items below.
experiment summary: chemical genetic growth profiling, strain panel (AID 1159580)
assay conditions: S. cerevisiae deletion strains, growth OD, locus YKR001C, strain vps1, active compounds read low
Out of some 5,500 compounds screened, about 2,000 (36%) were called active. Roughly 18% stayed inconclusive and do not appear here. Some of the results follow.
Give bare numbers.

• CC(=O)Nc1nnc(S(N)(=O)=O)s1 = 0.884

Count: 3. Required value per item: normalized growth.
1. CCCCCC1C(=O)CCC1CC(=O)OC (stereo not given)
2. CC(CN1c2ccccc2Sc2cccnc21)N(C)C (stereo not given)
3. C=C1C2CC[C@@]3(C)[C@H](c4ccoc4)OC(=O)C[C@]13O[C@H]1CC(O)C(C)(C)C(CC(=O)OC)[C@@]21C (stereo not given in full)

## Result
1: 0.951; 2: 0.999; 3: 0.999

* * *

experiment summary: chemical genetic growth profiling, strain panel (AID 1159580);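 note: tested at 20 µM; growth read once vehicle control cultures reached saturation at 30 °C; 1 = growth at the plate median or of vehicle wells; lower values mean less growth of the strain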
assay conditions: S. cerevisiae deletion strains, growth OD, locus YLR268W, strain sec22, active compounds read low
Among all 5,500 compounds or so, about 2,000 (36%) were called active. Roughly 18% stayed inconclusive and do not appear here. The list shows a part of the results.
recorded endpoint: normalized growth
Give bare numbers.

Would you please look over these solved cases?
- C[C@H](CCC(=O)O)[C@H]1CCC2C3C(CC[C@@]21C)[C@@]1(C)CC[C@@H](O)C[C@H]1C[C@H]3O (stereo partly specified): 1.03
- CC(=O)Nc1ccccc1: 0.99
- CC(CN1c2ccccc2Sc2ccccc21)N(C)C (stereo unspecified): 0.947
- CN(C)CCC(c1ccc(Br)cc1)c1ccccn1 (stereo unspecified): 0.956
- O=c1[nH]cnc2[nH]ncc12: 1.02

Kindly review the next compound as well.
## Task Quick check: normalized growth of CC(CN1c2ccccc2Sc2cccnc21)N(C)C (stereo unspecified) ?
## Result 0.998

* * *

Kindly supply the reported normalized growth values for the records listed here.
experiment summary: chemical genetic growth profiling, strain panel (AID 1159580);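 note: tested at 20 µM; growth read once vehicle control cultures reached saturation at 30 °C; 1 = growth at the plate median or of vehicle wells; lower values mean less growth of the strain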
assay conditions: S. cerevisiae deletion strains, growth OD, locus YKL009W, strain mrt4, active compounds read low
Out of some 5,500 compounds screened, about 2,000 (36%) were called active. Inconclusive results (about 18%) are left out. This is one part of the list.
One number for each entry.

• CC(CN(C)C)CN1c2ccccc2CCc2ccccc21 (stereo unspecified) = 1
• CC(=O)Nc1nnc(S(N)(=O)=O)s1 = 1.03
• CC(=O)N=c1sc(S(N)(=O)=O)nn1C = 1
• COc1cc([C@@H]2c3cc4c(cc3[C@H](OC(C)=O)[C@H]3COC(=O)[C@@H]23)OCO4)cc(OC)c1OC = 0.999

Each compound below has a reported value. Please supply its normalized growth.
1. CSc1ccc2c(c1)N(CCC1CCCCN1C)c1ccccc1S2 (stereo unspecified)
2. NC(N)=NCCCC(NC(=O)C(N)Cc1ccc(O)cc1)C(=O)O (stereo unspecified)
3. CC(CN1c2ccccc2Sc2cccnc21)N(C)C (stereo unspecified)
4. COc1ccc(C(=O)N2CCCC2=O)cc1
5. Nc1ccn(C2O[C@H](CO)[C@@H](O)[C@H]2O)c(=O)n1 (stereo partly specified)
6. COc1cc([C@H]2Oc3cc([C@H]4Oc5cc(O)cc(O)c5C(=O)[C@@H]4O)ccc3O[C@@H]2CO)ccc1O

## Result
1. 0.978
2. 0.938
3. 1
4. 0.97
5. 1.04
6. 0.984

## Task Which normalized growth value is on record for `CNCCCN1c2ccccc2CCc2ccccc21` ?
## Result 1

* * *

experiment summary: chemical genetic growth profiling, strain panel (AID 1159580);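 note: tested at 20 µM; growth read once vehicle control cultures reached saturation at 30 °C; 1 = growth at the plate median or of vehicle wells; lower values mean less growth of the strain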
assay conditions: S. cerevisiae deletion strains, growth OD, locus YPR163C, strain tif3
The whole screen tested about 5,500 compounds, of which about 2,000 (36%) were called active. Another 18% or so got no clear call; they are omitted. Cut-off read from the data, not from the text of the source: active = normalized growth mostly below about 0.91 (no sharp cut-off); inconclusive = no clear call, values can overlap the other calls; inactive = mostly above about 0.92. This is one part of the list.
Valid outcomes are listed here; reply with one: T = active, F = inactive

Would you please look over these solved cases?
• NC(N)=NCCCC(NC(=O)C(N)Cc1ccc(O)cc1)C(=O)O (centres undefined) = F
• CN1CC(CNC(=O)OCc2ccccc2)CC2c3cccc4c3c(cn4C)CC21 (centres undefined) = F
• CC(=O)O[C@H]1CC[C@]2(C)C3C(=O)[C@@H](OC(C)=O)[C@@]4(C)C(C[C@@H]5O[C@]6(CCC(C)CO6)[C@@H](C)[C@@H]54)C3CC[C@H]2C1 (some centres undefined) = F

## Task Short answer needed: outcome of this test for CSc1ccc2c(c1)N(CCC1CCCCN1C)c1ccccc1S2 (centres undefined) ?
## Result T

## Task Also, COc1c2ccoc2nc2c(OC)c(OCC(O)C(C)(C)O)ccc12 (centres undefined) please.
## Result F

## Task Param item: `NC(N)=NCCC[C@@H](NC(=O)[C@@H](N)Cc1ccc(O)cc1)C(=O)O`
## Result F

## Task Next record, please: CC(=O)O[C@H]1C[C@@H](OC(C)=O)C(C)(C)C2CC(=O)[C@]3(C)C(CC[C@@]4(C)[C@H](c5ccoc5)OC(=O)[C@H]5O[C@]543)[C@]21C (some centres undefined)
## Result F

## Task Input `COc1c2ccccc2nc2occc12`
## Result F

## Task And for `CO[C@]12C[C@@H](COC(=O)c3cncc(Br)c3)CN(C)[C@@H]1Cc1cn(C)c3cccc2c13` ?
## Result F
